# SYSTEM: TDG (Homo sapiens)
# Sequence (Q13569 whole entry): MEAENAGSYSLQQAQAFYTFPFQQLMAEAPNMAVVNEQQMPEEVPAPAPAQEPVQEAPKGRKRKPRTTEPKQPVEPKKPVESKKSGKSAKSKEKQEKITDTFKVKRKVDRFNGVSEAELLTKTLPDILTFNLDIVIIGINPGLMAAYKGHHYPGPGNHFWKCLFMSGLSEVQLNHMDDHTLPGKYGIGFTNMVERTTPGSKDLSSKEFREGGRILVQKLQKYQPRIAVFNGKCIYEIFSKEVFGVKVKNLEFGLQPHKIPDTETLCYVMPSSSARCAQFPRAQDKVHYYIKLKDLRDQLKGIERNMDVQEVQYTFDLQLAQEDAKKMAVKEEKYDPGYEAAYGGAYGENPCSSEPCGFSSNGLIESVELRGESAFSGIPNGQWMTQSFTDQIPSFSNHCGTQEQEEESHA
pIC50: −log10 of the molar value.
pIC50 by entry:

{"MOLECULAR STRING": "O=C(CCN1CCCC1)c1ccc2c(c1)OCCO2", "SYSTEM": "TDG (Homo sapiens)", "pIC50": "≥ 5.30"}
{"MOLECULAR STRING": "COc1ccc2c(c1)CN(CCC(=O)c1ccc3c(c1)OCCO3)C2", "SYSTEM": "TDG (Homo sapiens)", "pIC50": "≥ 5.30"}
{"MOLECULAR STRING": "O=C(CCN1Cc2ccc(Br)cc2C1)c1ccc2c(c1)OCCO2", "SYSTEM": "TDG (Homo sapiens)", "pIC50": "≥ 5.30"}
{"MOLECULAR STRING": "O=C(CCN1CCc2ccccc2C1)c1ccc2c(c1)OCCO2", "SYSTEM": "TDG (Homo sapiens)", "pIC50": "≥ 5.30"}
{"MOLECULAR STRING": "O=C(c1ccc2c(c1)OCCO2)N1Cc2ccccc2C1", "SYSTEM": "TDG (Homo sapiens)", "pIC50": "< 5.30"}
